# assay summary: chemical genetic growth profiling, strain panel (AID 1159580);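 further: tested at 20 µM; growth read once vehicle control cultures reached saturation at 30 °C; 1 = growth at the plate median or of vehicle wells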
# run conditions: S. cerevisiae deletion strains, growth OD, locus YOL147C, strain pex11
About 2,000 (36%) of roughly 5,500 compounds were called active. Another 18% or so got no clear call; they are omitted. No stated cut-off is given here; in the data, active means normalized growth mostly below about 0.91 (no sharp cut-off); inconclusive means no clear call, values can overlap the other calls; inactive means mostly above about 0.92. This is one part of the list.
Choose the fitting class; nothing outside yes (1) = active, no (0) = inactive is accepted.

[[record]]
molecule = "COCCc1ccc(OCC(O)CNC(C)C)cc1 (stereo unspecified)"
discrete_label = "no (0)"

[[record]]
molecule = "CN[C@@H](C)[C@@H](O)c1ccccc1"
discrete_label = "no (0)"

[[record]]
molecule = "CC(CCc1ccccc1)NC(C)C(O)c1ccc(O)cc1 (stereo unspecified)"
discrete_label = "no (0)"

[[record]]
molecule = "CNCCc1ccccn1"
discrete_label = "no (0)"

[[record]]
molecule = "CCCCCCCCNC(C)C(O)c1ccc(SC(C)C)cc1 (stereo unspecified)"
discrete_label = "yes (1)"


Assay outcome for CC[C@H](/C=C/C(C)C1CCC2C3CCC4=CC(=O)CC[C@]4(C)C3CC[C@]12C)C(C)C (stereo partly specified) : what was it?
no (0)

Could you check what this test reported for CC1CC2C3CCC4=CC(=O)C=C[C@]4(C)[C@@]3(F)[C@@H](O)C[C@]2(C)[C@@]1(O)C(=O)CO (stereo partly specified) ?
no (0)

Could you check what this test reported for CCC(=O)O[C@H]1CCC2C3CCC4=CC(=O)CC[C@]4(C)C3CC[C@@]21C (stereo partly specified) ?
no (0)

Per the assay record, what outcome was assigned to `CCCCCCCCCCCCCCCC(=O)OC/C=C(C)/C=C/C=C(C)/C=C/C1=C(C)CCCC1(C)C` ?
no (0)

// outcome(item) with item = CC1=C(/C=C/C(C)=C/C=C/C(C)=C/C=C/C=C(C)/C=C/C=C(C)/C=C/C2=C(C)C(=O)C(O)CC2(C)C)C(C)(C)CC(O)C1=O (stereo unspecified)
no (0)

Returns: the outcome recorded for CNC(C)[C@H](O)c1ccccc1 (stereo partly specified) in this assay.
no (0)

* * *

# assay summary: chemical genetic growth profiling, strain panel (AID 1159580);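 further: tested at 20 µM; growth read once vehicle control cultures reached saturation at 30 °C; 1 = growth at the plate median or of vehicle wells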
# run conditions: S. cerevisiae deletion strains, growth OD, locus YNL250W, strain rad50, stronger effect = lower value
The campaign covered roughly 5,500 compounds. About 2,000 (36%) were called active. Roughly 18% stayed inconclusive and do not appear here. The list shows a part of the results.
measurement type: normalized growth

[[record]]
molecule = "CCOC(=O)C1(O)Oc2cc(OC)cc(OC)c2C(=O)C1c1ccccc1 (stereo not drawn)"
value_reported = "0.979 (inactive)"


Alright, here's another molecule for you.
Can you look up the measured normalized growth of OCCN1C[C@@H](O)[C@@H](O)C(O)C1CO (stereo partly drawn) for me?
1 (inactive)

* * *

# assay summary: chemical genetic growth profiling, strain panel (AID 1159580);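 further: tested at 20 µM; growth read once vehicle control cultures reached saturation at 30 °C; 1 = growth at the plate median or of vehicle wells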
# run conditions: S. cerevisiae deletion strains, growth OD, locus YLR113W, strain HOG1, stronger effect = lower value
Screen size: about 5,500 compounds; about 2,000 (36%) were called active. Another 18% or so got no clear call; they are omitted. Some of the results follow.
Below is a list of entries, each paired with its recorded normalized growth value.
Please reply with the value in numeric form only.

Worked set:
[[record]]
compound = "COc1cc2c(cc1OC)[C@@H]1C(=O)c3ccc4c(c3O[C@@H]1CO2)C=CC(C)(C)O4"
measurement_type = "normalized growth"
value_reported = 0.898

[[record]]
compound = "COc1ccc2c(c1)O[C@@H]1COc3cc(OC)c(OC)cc3[C@@H]1C2=O"
measurement_type = "normalized growth"
value_reported = 0.983

[[record]]
compound = "C=Cc1c2[nH]c(c1C)C=c1[nH]c(c(C)c1C=C)=CC1N=C(C=c3[nH]c(c(C)c3CCC(=O)O)=C2)C(CCC(=O)O)=C1C (stereo not given)"
measurement_type = "normalized growth"
value_reported = 1.05

[[record]]
compound = "CN1CCCN=C1COC(=O)C(O)(c1ccccc1)C1CCCCC1 (stereo not given)"
measurement_type = "normalized growth"
value_reported = 1.01


So what's the measured normalized growth for this one? NC(=O)C(c1ccccc1)(c1ccccc1)C1CCN(CCc2ccc3c(c2)CCO3)C1 (stereo not given)
1.01

Attribution: PubChem BioAssay AID1159580
